The measured values listed here are drawn from BigSolDB 2.1.

Details: in methanol, 283.15 K
PROPERTY NAME: solubility (mole fraction)
Would you mind answering with just the numeric figure?

Task: # get_value(readout='solubility (mole fraction)', item= CC(=CC(C)=Nc1c(C)cc(C)cc1C)Nc1c(C)cc(C)cc1C )
Output: 0.00117

* * *

Conditions: in ethanol, 303.15 K
PROPERTY NAME: solubility (mole fraction)
Would you mind answering with just the numeric figure?

Task: # get_value(readout='solubility (mole fraction)', item= CC(=CC(C)=Nc1c(C)cc(C)cc1C)Nc1c(C)cc(C)cc1C )
Output: 0.00849

* * *

Conditions: in toluene, 298.15 K
PROPERTY NAME: solubility (mole fraction)

Task: # get_value(readout='solubility (mole fraction)', item= CC(=CC(C)=Nc1c(C)cc(C)cc1C)Nc1c(C)cc(C)cc1C )
Output: 0.33

* * *

Settings: in ethanol, 278.15 K
PROPERTY NAME: solubility (mole fraction)
Would you mind answering with just the numeric figure?

Task: # get_value(readout='solubility (mole fraction)', item= CC(=CC(C)=Nc1c(C)cc(C)cc1C)Nc1c(C)cc(C)cc1C )
Output: 0.00317

* * *

Conditions: in THF, 298.15 K
PROPERTY NAME: solubility (mole fraction)

Task: # get_value(readout='solubility (mole fraction)', item= CC(=CC(C)=Nc1c(C)cc(C)cc1C)Nc1c(C)cc(C)cc1C )
Output: 0.317
